meta.source: ChEMBL document CHEMBL5058577

Test system: U2OS
Experiment Notes: Multiplex assay against U2OS
Format: toxicity, cell-based
Settings: human, 24 h, 10 µM, compound concentration 10 uM, replicate 2
Assign Y whenever Population Mitochondria Different-Phenotype (%) does not fall below 9%; assign N whenever it does.

Problem: Does the reported Population Mitochondria Different-Phenotype (%) for CC(/C=C1\SC(=S)N(CCCC(=O)Nc2ccc(C(=O)O)c(O)c2)C1=O)=C\c1ccccc1 fall at or above the 9% mark?
Result: N

Problem: Evaluate NCCc1cn(S(=O)(=O)c2c(Cl)nc3sccn23)c2ccccc12.O=C(O)C(=O)O : Population Mitochondria Different-Phenotype (%) at minimum 9%?
Result: Y

Problem: Decide: is the reported value of Population Mitochondria Different-Phenotype (%) for COc1cccc2c1c(NS(=O)(=O)c1ccc(Cl)s1)nn2Cc1cccc(CNC(=O)C(C)(C)O)c1 equal to or greater than 9%?
Result: N

Problem: Decide: is the reported value of Population Mitochondria Different-Phenotype (%) for N#Cc1cc(F)cc(-c2nc(-c3ccc(F)cn3)no2)c1 equal to or greater than 9%?
Result: N

Problem: Decide: is the reported value of Population Mitochondria Different-Phenotype (%) for Cl.N=C(N)NC(=O)Cc1c(Cl)cccc1Cl [GUANFACINE HYDROCHLORIDE] equal to or greater than 9%?
Result: N

* * *

Test system: HEK-293T
Experiment Notes: Multiplex assay against HEK293T
Assay type: toxicity, cell-based
Settings: human, 12 h, 10 µM, compound concentration 10 uM, replicate 1
Values of Total Cell Count strictly less than 300 map to true, and values of at least 300 map to false.

Problem: Say whether its Total Cell Count is strictly beneath 300. Entry: CC(C)COc1ccc(CNC(=O)N(Cc2ccc(F)cc2)C2CCN(C)CC2)cc1
Result: true

Problem: A record lists Cc1c(CC(=O)O)c2cccnc2n1Cc1ccc(S(C)(=O)=O)cc1C(F)(F)F . Is its Total Cell Count below 300?
Result: false

Problem: Strictly below 300 in Total Cell Count? CCCOc1ccc2[nH]cc(C3=CCNCC3)c2n1.Cl
Result: false

Problem: Does Cc1cnc(-c2cc(N3CCN(C(=O)CCS(C)(=O)=O)CC3)ncc2Cl)c(C)c1 have Total Cell Count strictly under 300?
Result: false

Problem: Item O=C1[C@H](Cc2ccc(O)cc2)N2C(=O)CCN(C(=O)NCc3ccccc3)[C@H]2CN1Cc1cccc2ccccc12 : Total Cell Count beneath 300, strictly?
Result: false

* * *

Assign Total Cell Count to each entry below.
Test system: Fibroblast
Experiment Notes: Multiplex assay against human fibroblast
Type: toxicity, cell-based
Settings: 48 h, 10 µM, compound concentration 10 uM, replicate 2
Please reply with the value in numeric form only.

Problem: # Total Cell Count lookup, item CC(=O)Nc1cccc2c1c(Sc1ccc(Cl)cc1)c(C)n2CC(=O)O [AZD1981]
Result: 105

Problem: Tell me the measured Total Cell Count of C[C@H](N)COC(=O)[C@@H](CCCCN)NC(=O)Cc1c(-c2ccc3ccccc3c2)[nH]c2c1ccc1ccccc12 , please.
Result: 166

Problem: I have this compound here, CCCCCC(O)/C=C/[C@H]1C(=O)CC(O)C1C/C=C\CCCC(=O)O (some centres undefined) , and I need its recorded Total Cell Count.
Result: 104

Problem: # query: Total Cell Count of entry O=C(NCCN1CCC(n2c(=O)[nH]c3cc(Cl)ccc32)CC1)c1ccc(F)cc1 [HALOPEMIDE]
Result: 136

Problem: What Total Cell Count value was documented for this compound, Cl.NCCc1ccc(O)c(O)c1 [DOPAMINE HYDROCHLORIDE] ?
Result: 116

Problem: What measured Total Cell Count goes with O=C(CCCc1ccccc1)Nc1nc2ccccc2c(=O)s1 ?
Result: 119

Problem: Find the recorded Total Cell Count belonging to Cc1c(CC(=O)O)c2cccnc2n1Cc1ccc(S(C)(=O)=O)cc1C(F)(F)F [FEVIPIPRANT] and report it.
Result: 171

Problem: Given CN1CCN(c2cc(-c3ccccc3)nc(N)n2)CC1 , state its recorded Total Cell Count.
Result: 114

Problem: Total Cell Count lookup needed for O=C1[C@H](Cc2ccc(O)cc2)N2C(=O)CCN(C(=O)NCc3ccccc3)[C@H]2CN1Cc1cccc2ccccc12 , thanks.
Result: 119
